Consider the following compounds and their measured GI50 readings.
# System: A549 NSCLC
# PROCEDURE DETAILS: NCI tumour cell line growth inhibition, 48 h

[
  {
    "COMPOUND": "O=C(Cc1ccc(Nc2ccnc(C(F)(F)F)c2)cc1)N/N=C/c1ccccc1O",
    "GI50": "4.49 µM"
  }
]

# input // lookup GI50 for O=C1C(=C([O-])c2ccccc2)C(=O)c2ccccc21.O=C1C(=C([O-])c2ccccc2)C(=O)c2ccccc21.[Co+2]
# output > 100 µM

# input Give its GI50 value. Item: O=C([O-])CCc1ccccc1.O=C([O-])CCc1ccccc1.O=C([O-])CCc1ccccc1.O=C([O-])CCc1ccccc1.[Mo+2].[Mo+2]
# output > 100 µM

# input Form field: reported GI50 of O=C1/C(=C\c2ccccc2)CN(C(=O)c2ccccc2)C/C1=C\c1ccccc1
# output 3.63 µM

---

# Tested on: RXF 393 renal
# PROCEDURE DETAILS: NCI tumour cell line growth inhibition, 48 h
Below, each entry is listed alongside its reported TGI.

[
  {
    "COMPOUND": "CO[C@H]1O[C@@H]2OC3(C)CCC4[C@H](C)CCC([C@H]1C)[C@]42OO3 (stereo not given in full)",
    "SYSTEM NAME": "RXF 393 renal",
    "TGI": "> 100 µM"
  },
  {
    "COMPOUND": "NC(=S)N/N=C(\\CCC(=O)Nc1ccccc1[N+](=O)[O-])CC(=O)c1ccco1",
    "SYSTEM NAME": "RXF 393 renal",
    "TGI": "> 100 µM"
  },
  {
    "COMPOUND": "CS(=N)(=O)CCC(N)P(=O)(O)O (stereo not given)",
    "SYSTEM NAME": "RXF 393 renal",
    "TGI": "> 100 µM"
  },
  {
    "COMPOUND": "Cc1cccc(N=C/C=C(\\Cl)c2ccc3ccccc3c2)c1",
    "SYSTEM NAME": "RXF 393 renal",
    "TGI": "> 56.9 µM"
  },
  {
    "COMPOUND": "CC(=O)Oc1c(Br)ccc2cc(C(Br)Br)c(C(=O)c3ccccc3)nc12",
    "SYSTEM NAME": "RXF 393 renal",
    "TGI": "33.8 µM"
  }
]

Okay, now this compound:
# input Would you mind telling me what TGI value was observed for CCc1cccc(CC)c1NC(=O)CC1SC(N)=NC1=O (stereo not given) ?
# output > 100 µM

---

# Tested on: A549 NSCLC
# PROCEDURE DETAILS: NCI tumour cell line growth inhibition, 48 h; in the data active = GI50 below about 0.43 µM; inactive = the rest
// one of Y (active), N (inactive), no free text

For orientation, consider the following solved cases.
[
  {
    "MOLECULE": "O=C(c1cccs1)c1nc2cc(Cl)ccc2[n+]([O-])c1C(F)(F)F",
    "CATEGORY": "N"
  },
  {
    "MOLECULE": "C=C(CN1CCN(c2ccccc2C(F)(F)F)CC1)c1ccc(C(=O)Nc2ccccc2N)cc1",
    "CATEGORY": "N"
  },
  {
    "MOLECULE": "CC(C)OCc1cc(CN2CCN(c3cccc(Cl)c3)CC2)c(O)c2ncccc12",
    "CATEGORY": "N"
  }
]

# input Recorded test outcome, item CCCOc1ccc(/C=N/Nc2cc(C)nc3ccc(Cl)cc23)cc1
# output N

# input Could you check what this test reported for Cc1cc(C(O)(c2ccc(Nc3ccccc3)cc2)c2ccc(Nc3ccc(S(=O)(=O)O)cc3)cc2)ccc1N (centres undefined) ?
# output N

# input Hey, what did the test say about O=c1[nH]c2ccccc2n2cc3ccccc3c12 ?
# output N

# input State the result this test recorded for O=C(O)c1ccc(C(=O)O)c(C(=O)O)c1.[NH-]C1CCCCC1[NH-].[Pt+2] .
# output N

# input Recorded call for CCOc1cc(/C=C/C(=O)C(C(=O)/C=C/c2ccc(OC(=O)CNc3nnc(C)s3)c(OCC)c2)C(=O)CNc2nnc(C)s2)ccc1OC(=O)CNc1nnc(C)s1 ?
# output N

# input What classification did COc1ncc(-c2ccc3nccc(C#CCN4CCN(S(C)(=O)=O)CC4)c3c2)cc1NS(=O)(=O)c1ccc(F)cc1F end up with in this test?
# output Y

---

Consider the following molecules and their measured TGI readings.
# Test system: NCI-H460 lung
# PROCEDURE DETAILS: NCI tumour cell line growth inhibition, 48 h

Please review the following examples before continuing.
[
  {
    "MOLECULE": "CCCCCCCCCCCCCCCC(=O)Nc1ccn(C2CCC(COP(=O)(O)OCC3OC(n4cc(F)c(=O)[nH]c4=O)CC3OC(C)=O)O2)c(=O)n1 (stereo not given)",
    "TGI": "> 100 µM"
  },
  {
    "MOLECULE": "O=C(CCN1CCC(CCO)CC1)Nc1ccc2c(c1)C(=O)c1ccc(NC(=O)CCN3CCC(CCO)CC3)cc1C2=O",
    "TGI": "15.5 µM"
  }
]

# input What does the data say about its TGI? Entry: O=C(Oc1c(Br)cc(Br)cc1C(=O)Oc1ccccc1)C(=O)Oc1c(Br)cc(Br)cc1C(=O)Oc1ccccc1
# output > 100 µM

# input Could you tell me which TGI is on file for C=CC(=O)NCNC(=O)C=C ?
# output > 100 µM

# input For Cc1ccc(NC(=O)c2nc(S(C)(=O)=O)oc2-c2ccc(F)cc2)cc1Nc1ccc2ncn(C)c(=O)c2c1 , what is its reported TGI?
# output 10.9 µM

# input For the molecule COc1cc2c(cc1OCCCCn1c(-c3cccs3)nc3ccccc31)N=C[C@@H]1CCCN1C2=O , what TGI is on record?
# output 4.38 µM

# input Give the measured TGI of O=C(O)CNCCc1ccccc1 .
# output > 100 µM

# input Record request: TGI value, item COC(=O)c1ccc(C)cc1C1CN=NC12Cc1cc(C)ccc1C2=O (stereo not given)
# output > 65.4 µM

# input Would you mind telling me what TGI value was observed for CC(=O)Oc1ccc(Nn2c3ccccc3c3ccccc32)c(C)c1 ?
# output > 100 µM

# input Please give the measured TGI for this molecule: CN1C(C)(C)CC(=O)C(Br)C1(C)C (stereo not given)
# output > 100 µM

---

# System: ACHN renal
# PROCEDURE DETAILS: NCI tumour cell line growth inhibition, 48 h
VALUE TYPE: TGI

Recorded TGI, per entry:
[
  {
    "MOLECULE": "O=C1CC(C(OCc2ccccc2)C(OCc2ccccc2)C(OCc2ccccc2)C(COCc2ccccc2)OCc2ccccc2)CC(=O)N1 (stereo not given)",
    "TGI": "> 100 µM"
  },
  {
    "MOLECULE": "O=C1CCN2C(=N1)Sc1ccccc12",
    "TGI": "> 100 µM"
  },
  {
    "MOLECULE": "COC(=O)[C@@H](OC(C)=O)[C@@H](OC(C)=O)c1nnc2ccc(Cl)nn12",
    "TGI": "> 100 µM"
  }
]

# input What does the record list as TGI for COc1ccc2c(c1)-c1nc(=O)n(CCCN(C)C)c3ccc([N+](=O)[O-])c(c13)N2 ?
# output 15 µM

# input Data request, read-out TGI, for [N-]=[N+]=CC(=O)OCC1NC(=O)C(COC(=O)C=[N+]=[N-])NC1=O (stereo not given)
# output > 100 µM

---

# Tested on: MDA-N
# PROCEDURE DETAILS: NCI tumour cell line growth inhibition, 48 h
VALUE TYPE: TGI

For orientation, consider the following solved cases.
[
  {
    "COMPOUND": "CC(C)OC(=O)NNc1cccc(Cl)c1",
    "OBSERVED VALUE": "> 100 µM"
  },
  {
    "COMPOUND": "COC(=O)[C@@H](OC(C)=O)[C@@H](OC(C)=O)c1nnc2ccc(Cl)nn12",
    "OBSERVED VALUE": "> 100 µM"
  },
  {
    "COMPOUND": "O=c1nc2c(c(-c3ccc(F)cc3)[nH]1)COC/C2=C\\c1ccc(F)cc1",
    "OBSERVED VALUE": "> 100 µM"
  }
]

# input Given the entry O=C(c1ccccc1)C(Nc1ccc2ccccc2c1)c1ccccc1 (configuration not stated) , report its measured TGI.
# output > 100 µM

# input Would you kindly share the measured TGI for c1ccc(-c2cc(-c3ccncc3)cc(-c3ccncc3)n2)cc1 ?
# output > 100 µM

# input Form field: reported TGI of COc1ccc(-n2c(Cn3nnc(-c4cccnc4)n3)nn(C3OC(COC(=O)c4ccccc4)C(OC(=O)c4ccccc4)C3OC(=O)c3ccccc3)c2=S)cc1 (configuration not stated)
# output > 100 µM

# input // returns reported TGI for input Cc1c2ccccc2c(C2C3C(=O)N(c4cccc5ccccc45)C(=O)C3ON2Cc2ccc(CC(N)=O)cc2)c2ccccc12 (configuration not stated)
# output 35.6 µM

# input // TGI lookup, key: O=C(/C=C/c1ccc(O)c(O)c1)NC(COC(=O)/C=C/c1ccc(O)c(O)c1)C(=O)O (configuration not stated)
# output > 100 µM

# input Reported TGI, compound Cn1c(=O)c2[nH]c(CCCc3ccc([N+](=O)[O-])cc3)nc2n(C)c1=O : ____
# output > 100 µM
